Target: furin, P09958;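 also: purified furin at 1:10 enzyme:substrate in 50 mM HEPES pH 7.5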
Sequence (P09958 whole entry): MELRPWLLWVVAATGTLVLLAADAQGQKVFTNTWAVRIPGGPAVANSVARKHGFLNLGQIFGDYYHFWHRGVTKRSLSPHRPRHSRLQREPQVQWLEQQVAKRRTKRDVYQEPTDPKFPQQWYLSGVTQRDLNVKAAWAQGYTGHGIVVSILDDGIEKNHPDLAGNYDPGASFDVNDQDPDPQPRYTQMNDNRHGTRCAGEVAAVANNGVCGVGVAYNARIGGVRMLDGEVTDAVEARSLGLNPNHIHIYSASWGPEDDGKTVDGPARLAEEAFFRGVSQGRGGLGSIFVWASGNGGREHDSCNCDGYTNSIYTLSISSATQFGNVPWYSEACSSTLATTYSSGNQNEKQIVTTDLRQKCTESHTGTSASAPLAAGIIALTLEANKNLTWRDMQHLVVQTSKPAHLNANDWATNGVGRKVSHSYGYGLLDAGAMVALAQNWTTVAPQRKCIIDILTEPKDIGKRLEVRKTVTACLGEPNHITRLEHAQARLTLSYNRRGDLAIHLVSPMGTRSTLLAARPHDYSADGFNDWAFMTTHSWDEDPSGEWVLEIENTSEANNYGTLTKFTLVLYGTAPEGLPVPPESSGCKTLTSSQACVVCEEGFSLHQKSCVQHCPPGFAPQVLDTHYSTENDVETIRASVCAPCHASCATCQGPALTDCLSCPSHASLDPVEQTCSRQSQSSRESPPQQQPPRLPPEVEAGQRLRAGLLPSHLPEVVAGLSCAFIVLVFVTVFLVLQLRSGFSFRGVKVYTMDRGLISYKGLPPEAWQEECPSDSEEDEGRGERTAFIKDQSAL
Experiment: furin cleavage Z-score vs untreated control; higher = more cleavage, active = 3.5 or more, inactive = 1 or less, 8 variable residues between constant flanks
Conditions: 15 min
The list shows a part of the results. The true hit rate is not given.
Measured furin cleavage Z-score, listed per entry.
Please respond with just the number, no unit label.

# get_value(readout='furin cleavage Z-score', item= CARWKRYQRSAGNASASA [FS-142] )
10.7

One more sequence: CARWKRQNFHAGNASASA [FS-2471]
0.449

One more sequence: CARWKRYRRWAGNASASA [FS-1077]
12.1

One more sequence: CAGTHGLVSFAGNASASA [HC541]
0.474
